# assaySystem: PDE8A1 (480–820) (Homo sapiens)
Documented IC50 across a set of compounds

| structureString | IC50 / nM |
| --- | --- |
| Nc1nc(Cl)nc2c1ncn2Cc1cc(OCC(F)F)cc(OC2CCC2)c1 | 20 |
| CC(C)c1cc(Cn2cnc3c(N)nc(Cl)nc32)cc(OCC(F)F)c1 | 4.6 |
| Nc1nc(Cl)nc2c1ncn2Cc1cc(OCC(F)F)cc(-c2cccnc2)c1 | 4.8 |
| COc1cc(Cn2cnc3c(N)nc(Cl)nc32)cc(OCC(F)F)c1 | 591 |
| COCCOc1cc(Cn2cnc3c(N)nc(Cl)nc32)cc(OCC(F)F)c1 | 52 |
| CC(C)Oc1cc(Cn2cnc3c(N)nc(Cl)nc32)cc(OCC(F)F)c1 | 5 |
| Nc1nc(Cl)nc2c1ncn2Cc1cc(OCC(F)F)cc(-c2ccncc2)c1 | 3.1 |
| CCOc1cc(Cn2cnc3c(N)nc(Cl)nc32)cc(OCC(F)F)c1 | 593 |

---

# assaySystem: PDE8A1 (480–820) (Homo sapiens, UniProt O60658)
# Sequence (O60658 480-820): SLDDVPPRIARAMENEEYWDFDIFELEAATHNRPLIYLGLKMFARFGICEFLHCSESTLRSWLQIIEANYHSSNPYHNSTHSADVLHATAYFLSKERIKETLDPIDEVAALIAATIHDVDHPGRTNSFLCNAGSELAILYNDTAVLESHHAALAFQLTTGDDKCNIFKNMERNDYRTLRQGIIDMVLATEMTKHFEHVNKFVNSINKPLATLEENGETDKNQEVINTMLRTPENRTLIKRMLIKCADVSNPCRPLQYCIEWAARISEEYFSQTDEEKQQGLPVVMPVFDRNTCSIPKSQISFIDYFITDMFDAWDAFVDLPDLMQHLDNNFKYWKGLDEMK
pIC50: −log10 of the molar value.
Hi, to clarify the labels: t covers pIC50 from 7 upward, f covers anything below 7.

| structureString | answerLabel |
| --- | --- |
| Nc1nc(Cl)nc2c1ncn2Cc1cc(F)cc(OCC(F)F)c1 | t |
| Nc1nc(Cl)nc2c1ncn2Cc1cc(OCC(F)F)cc(-c2ccco2)c1 | t |
| Nc1nc(Cl)nc2c1ncn2Cc1cc(O)cc(OCC(F)F)c1 | f |
| Nc1nc(Cl)nc2c1ncn2Cc1cc(OCc2ccccc2)cc(OCC(F)F)c1 | f |
| Nc1nc(Cl)nc2c1ncn2Cc1cc(OCC(F)F)cc(OCC2CC2)c1 | t |

---

# assayDetails: Metabolic stability in rat liver microsomes
# Type: in vitro ADME
Documented half-life across a set of compounds

| structureString | half-life (min) |
| --- | --- |
| Nc1nc(Cl)nc2c1ncn2Cc1cc(OCC(F)F)cc(-c2ccncc2)c1 | 8 |
| CC(C)Oc1cc(Cn2cnc3c(N)nc(Cl)nc32)cc(OCC(F)F)c1 | 16 |
| CC(C)c1cc(Cn2cnc3c(N)nc(Cl)nc32)cc(OCC(F)F)c1 | 6 |
| Nc1nc(Cl)nc2c1ncn2Cc1cc(OCC(F)F)cc(-c2cccnc2)c1 | 39 |

Sourced from paper PMC9293670
